Values compiled from patent US8772499B2.

Target: human TRPV3 (Homo sapiens, UniProt Q8NET8)
Construct: expressed in transfected cells
Sequence (Q8NET8 1-790): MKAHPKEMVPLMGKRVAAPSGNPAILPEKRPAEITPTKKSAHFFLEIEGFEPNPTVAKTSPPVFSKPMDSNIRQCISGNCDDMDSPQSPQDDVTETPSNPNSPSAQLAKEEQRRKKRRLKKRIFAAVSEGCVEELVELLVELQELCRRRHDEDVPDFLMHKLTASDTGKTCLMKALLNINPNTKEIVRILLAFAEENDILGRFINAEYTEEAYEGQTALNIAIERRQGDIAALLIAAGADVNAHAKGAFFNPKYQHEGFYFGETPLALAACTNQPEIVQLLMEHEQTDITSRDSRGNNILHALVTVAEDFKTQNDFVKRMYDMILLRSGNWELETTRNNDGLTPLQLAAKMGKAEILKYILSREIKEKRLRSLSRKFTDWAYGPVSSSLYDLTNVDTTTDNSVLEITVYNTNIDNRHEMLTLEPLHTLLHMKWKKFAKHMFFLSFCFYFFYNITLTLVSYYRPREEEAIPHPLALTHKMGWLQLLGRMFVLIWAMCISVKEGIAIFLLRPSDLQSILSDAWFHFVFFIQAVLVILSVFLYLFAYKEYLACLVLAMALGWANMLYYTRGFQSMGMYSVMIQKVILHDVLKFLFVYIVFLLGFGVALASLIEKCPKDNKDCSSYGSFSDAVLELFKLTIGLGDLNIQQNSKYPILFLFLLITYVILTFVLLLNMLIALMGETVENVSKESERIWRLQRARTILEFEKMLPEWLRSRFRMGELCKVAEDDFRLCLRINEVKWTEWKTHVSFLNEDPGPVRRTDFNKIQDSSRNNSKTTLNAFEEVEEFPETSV
Test: In vitro antagonism of recombinant human TRPV3 activation (FLIPR Tetra calcium assay)
Assay type: cell-based
Conditions: HEK293 cells stably expressing human TRPV3; agonist 2-APB at 80 μM; actual measured value shown parenthetically; in most cases average of at least two runs; read-out: IC50
readout.name: IC50 (µM)

| molecule | system.tested | readout.name | relational.operator | value |
| --- | --- | --- | --- | --- |
| OC(C1CCc2cccnc21)C1(c2ccc(C(F)(F)F)cc2)CCC1 (centres unmarked) [Example 173] | human TRPV3 (Homo sapiens, UniProt Q8NET8) | IC50 | > | 20 |
| OC(CC1(c2ccccc2)CCC1)c1ccccn1 (centres unmarked) | human TRPV3 (Homo sapiens, UniProt Q8NET8) | IC50 | = | 3.68 |
| OC(C1CCc2cccnc21)C1(c2ccccc2C(F)(F)F)CCC1 (centres unmarked) [Example 197] | human TRPV3 (Homo sapiens, UniProt Q8NET8) | IC50 | > | 20 |
| OC(c1ccccn1)C1(c2ccccc2F)CCCO1 (centres unmarked) [Example 103] | human TRPV3 (Homo sapiens, UniProt Q8NET8) | IC50 | = | 2 |
| OC(c1ccccn1)C1(Cc2cccc(F)c2)CCC1 (centres unmarked) | human TRPV3 (Homo sapiens, UniProt Q8NET8) | IC50 | = | 4.22 |

====

biological target: human TRPV3 (Homo sapiens, UniProt Q8NET8); construct: expressed in transfected cells; assay: In vitro antagonism of recombinant human TRPV3 activation (FLIPR Tetra calcium assay); format: cell-based; settings: HEK293 cells stably expressing human TRPV3; agonist 2-APB at 80 μM; actual measured value shown parenthetically; in most cases average of at least two runs; read-out: IC50
pIC50: −log10 of the molar value.

| molecule | relational.operator | pIC50 |
| --- | --- | --- |
| O[C@H](c1ccccn1)[C@]1(c2cccc(C(F)(F)F)c2)C[C@H](O)C1 [Example 259] | = | 6.33 |
| N[C@H]1CCC[C@H]1[C@H](O)C1(c2ccc(Cl)c(Cl)c2)CCC1 [Example 217] | = | 5.40 |
| OC1CC(c2ccc(C(F)(F)F)cc2)([C@@H](O)c2ccccn2)C1 (mixture of isomers) [Example 199] | < | 4.70 |
| O=C1CC(c2cccc(C(F)(F)F)c2)([C@H](O)c2ccccn2)C1 (single isomer, unassigned) [Example 241] | = | 5.78 |
| CC(c1ccccc1)C1(C(O)c2ccccn2)CCC1 (centres unmarked) [Example 51] | = | 5.08 |
| O=C1CC(c2cccc(C(F)(F)F)c2)(C(O)c2ccccn2)C1 (centres unmarked) [Example 245] | = | 5.44 |
| COC1CC(c2ccc(Cl)c(Cl)c2)(C(O)c2ccccn2)C1 (centres unmarked) [Example 150] | = | 5.77 |
| CC1(O)CC(c2ccc(OC(F)(F)F)cc2)(C(O)c2ccccn2)C1 (single isomer, unassigned) [Example 134] | = | 6.07 |
